Tested on: KM12
assayText: NCI tumour cell line growth inhibition, 48 h
Activity calls are given as the source filed them. No stated cut-off is given here; in the data, active = GI50 up to about 1.1 µM and inactive = higher.

molecule | GI50
CN(C)CCCN=C(N)N | > 100 µM (inactive)
CC(=O)OC/C=C/Cn1ncc(=O)[nH]c1=O | > 100 µM (inactive)
CN(CCCCN1CCCC1)CCCN(C)C(=O)Cc1ccc(Cl)c(Cl)c1 | 12.5 µM (inactive)
C/C=C\C(CC(=O)NCCC1CN(C(=O)OCc2ccccc2)c2ccccc21)CC(=O)OC (configuration not stated) | > 100 µM (inactive)
COc1ccc(CC2c3cc(Oc4cc(CC5c6cc(OC)c(OC)cc6CCN5C)ccc4O)c(OC)cc3CCN2C)cc1 (configuration not stated) | 1.77 µM (inactive)
CC(=O)N1CCc2c([nH]c3ccc(Br)cc23)C1c1ccccc1 (configuration not stated) | > 3.41 µM (inactive)
C=C1C(=O)O[C@H](c2ccoc2)C[C@@H]1[C@@]1(C)CCCC2(C)C(=O)OCC21 (some centres not stated) | > 100 µM (inactive)
Nc1ncnc2c1nnn2C1C=C(CO)C(O)C1O (configuration not stated) | 36.6 µM (inactive)
O=C(c1ccccc1)N1CCC(CC2(c3cc4ccccc4[nH]3)OCCO2)CC1 | 34.2 µM (inactive)
COC(=O)/C(C)=N/N=C(\S)SC | 52.5 µM (inactive)
CC1=Nc2ccccc2OC(C)=C1/N=N/c1ccc2[nH]c(C)nc2c1 | > 100 µM (inactive)
CCCCCCCCCc1cc(=O)c2c(O)cccc2o1 | 40.6 µM (inactive)

###

Tested on: RXF 393
assayText: NCI tumour cell line growth inhibition, 48 h
Calls of active or inactive are those of the source. No stated cut-off is given here; in the data, active = GI50 up to about 1.1 µM and inactive = higher.
Classes used: active, inactive

compound | labelClass
c1ccc2c(c1)OCCc1cn[nH]c1-2 | inactive
C[N+](C)(C)CC1CCCC(C[N+](C)(C)C)C1=O (stereo not drawn) | inactive
CN1C(=O)C2C(=O)N(Cc3ccccc3)CC(=O)N2c2cccnc21 (stereo not drawn) | inactive
Cn1c(N)c(/N=N/c2ccc(S(N)(=O)=O)cc2)c(=O)n(C)c1=O | inactive
CN(CCCCN1CCCC1)CCCN(C)C(=O)Cc1ccc(Cl)c(Cl)c1 | inactive
CSc1nc(CO)c(CO)n1C | inactive
COC(=O)/C(C)=N/N=C(\S)SC | inactive
NS(=O)(=O)c1ccc(NC(=O)c2cc([N+](=O)[O-])cc([N+](=O)[O-])c2)cc1 | inactive
COC(=O)Cc1c([C@H]2[C@H](CC(=O)OC)c3ccccc3N2C(C)=O)[nH]c2ccccc12 | inactive
O=C1NC(=O)C(F)(n2cc(F)c(=O)[nH]c2=O)C(O)N1 (stereo not drawn) | inactive
COc1cc(C2c3cc4c(cc3CC3COC(=O)N32)OCO4)cc(OC)c1OC (stereo not drawn) | inactive
CCOC(=O)Nc1cc2nnc(-c3ccccc3)nc2c(N)n1 | inactive
CCCCCCNC(=O)c1cc(NCc2cc(OC)ccc2OC)ccc1O | inactive
C[C@H](C(=O)C12CC3CC(CC(C3)C1)C2)[C@H](O)c1ccccc1 | inactive
Cc1ccc2[nH]c3[nH]c(=O)[nH]c(=O)c3c2c1 | inactive
OC[C@@H](O)[C@H](O)[C@H](O)[C@@H](O)C1SCCCS1 | inactive
Nc1ncnc2c1nnn2C1C=C(CO)C(O)C1O (stereo not drawn) | inactive
Nc1nc2c(C(=O)O)c3ccc([N+](=O)[O-])cc3c(=O)n2c2ccccc12 | inactive
CCOC1=NC(C(F)(F)F)(C(F)(F)F)N=C(N2CCCCC2)O1 | inactive
O=C(Nc1cccc2nsnc12)c1cc2c(cc1Cl)Sc1nccn1S2(=O)=O | inactive
Cc1ccc(CC(=O)Nc2ccc(NC(=O)/C=C/NC(=O)/C=C/c3ccc(-c4ccccc4)cc3)cc2C(=O)c2ccccc2)cc1 | inactive
C=C(CN(C)C)C(=O)c1ccccc1 | inactive
Cc1ccc2c3ccc4c(c3n(C)c2c1)C(=O)C=CC4=O | inactive
CC1(C)CN=C(Nc2ccc(F)c(F)c2)S1 | inactive
CC1(C)CCC[C@@]2(C)C1CCC1(C)C(CCc3ccoc3)/C(=C/OS(=O)(=O)O)CCC12 (stereo partly drawn) | inactive
COc1cccc(-c2nnc3c(-c4ccccc4)nc4ccccc4n23)c1 | inactive
Cn1c(=O)[nH]c2nncnc2c1=O | inactive
CCCCOc1ccc(S(=O)(=O)N/C(N)=N/c2ccc(Cl)cc2)cc1 | inactive
CN1CCc2c(sc3ncn(C)c(=N)c23)C1 | inactive
CCN(CCCl)c1cc(CN(C)C)cc(NC(=O)c2ccc(C(=O)Nc3ccccc3)cc2)c1 | active
CN(Cc1ccccc1)Cn1ccnc1 | inactive
O=C(/N=c1/[nH]/c(=N/C(=O)c2ccccc2)ss1)c1ccccc1 | inactive
N=C1C(O)C2(I)c3ccccc3N3C(=N)C(O)C4c5ccccc5N1C4C32 (stereo not drawn) | inactive
COc1ccccc1-c1csc(CCC(N)C(=O)O)n1 (stereo not drawn) | inactive
C[N+](C)(C)[BH-](Br)C(O)O (stereo not drawn) | inactive
Nc1nc(CCC(=O)Nc2cccc(C(F)(F)F)c2)cc(-c2cccc3ccccc23)n1 | inactive
c1ccc(C2(c3cc4ccccc4[nH]3)OCCO2)cc1 | inactive
O=C(Cc1ccccc1)NN1C(=O)C(Cl)C1c1ccccc1Cl (stereo not drawn) | inactive

###

Test system: OVCAR-5
assayText: NCI tumour cell line growth inhibition, 48 h
The source made the active and inactive calls. Cut-off read from the data, not from the text of the source: active = GI50 up to about 1.1 µM and inactive = higher.
Classes used: TRUE (active), FALSE (inactive)

compound | labelClass
O=C1CCc2cc3c(cc21)C(C(=O)O)CC3 (configuration not stated) | FALSE
NC(=O)C(=CN1C(=O)CC(=O)NC1=S)C(N)=O | FALSE
O=C(/C=C\c1ccc(Cl)c(Cl)c1)c1ccc(Cl)cc1Cl | FALSE
Cc1cccc2c(N)c3cccc(C(=O)NCCN(C)C)c3nc12 | TRUE
CC(=O)C(=[N+]=[N-])C(=O)N(C)CCC#N | FALSE
CCCN(CCC)C(=O)c1c(Cl)c2cccnc2n2c(C)cnc12 | FALSE
OC[C@@H](O)[C@H](O)[C@H](O)[C@@H](O)C1SCCCS1 | FALSE
C[C@@H]1S[C@H](c2c(F)cccc2Cl)n2c1nc1ccccc12 | FALSE
Cc1sc2nc3n(c(=O)c2c1C)N=C(c1ccc([N+](=O)[O-])cc1)CS3 | FALSE
CCc1nc(Cl)c(Cl)c(Cl)n1 | FALSE
Nc1nc(CCC(=O)Nc2cccc(C(F)(F)F)c2)cc(-c2cccc3ccccc23)n1 | FALSE
CC(=O)OC1CCn2nnc(COC(=O)NC(C)C)c21 (configuration not stated) | FALSE

###

System: HL-60
assayText: NCI tumour cell line growth inhibition, 48 h
Active and inactive are the calls of the source. Cut-off read from the data, not from the text of the source: active = GI50 up to about 1.1 µM and inactive = higher.
Classes used: active, inactive

compound | labelClass
C[S+](C)C1(c2ccccc2)C(=O)c2ccccc2C1=O | inactive
CC1C2CCC3C(O)C2(CC(O)C2(O)C1CC(O)C2(C)C)CC3(C)O (centres undefined) | inactive
CSc1nc(CO)c(CO)n1C | inactive
COc1c(-c2nc3ccc(N4CCN(C)CC4)cc3[nH]2)cc(OC)c2[nH]c(CO)nc12 | inactive
CC(=O)SCCC(NC(=S)Nc1ccccc1)P(=O)(Oc1ccccc1)Oc1ccccc1 (centres undefined) | inactive
Cc1cc([N+](=O)[O-])c(C)c2c1[nH]c1ccc(/C(CCC3CCCC3)=N\N)cc12 | inactive
COc1ccc2nc3cc(Cl)ccc3c(NCCCNCCCNc3c4ccc(Cl)cc4nc4ccc(OC)cc34)c2c1 | active
CN1CCN2c3ccccc3CC(C#N)(C#N)C2C1 (centres undefined) | inactive
O=C1CCC2(CC1CC[S+]([O-])c1ccccc1)OCCO2 (centres undefined) | inactive
Cc1ccc2[nH]c3[nH]c(=O)[nH]c(=O)c3c2c1 | inactive
CCOC(=O)c1nc2ccccc2nc1Oc1cc(OC)cc(OC)c1 | inactive
O=C(NC(=O)c1cn(CCN(CCO)C(=O)NCCCCCCNC(=O)N(CCO)CCn2cc(C(=O)NC(=O)OCc3ccccc3)c(=O)[nH]c2=O)c(=O)[nH]c1=O)OCc1ccccc1 | inactive
CC(C)(C)C(=O)CC(=O)C(F)(F)C(F)(F)C(F)(F)F | inactive
O=C(Nc1ccc(Cl)cc1Cl)OC(Cn1cncn1)c1ccc(Cl)cc1Cl (centres undefined) | inactive
N=C(CSS(=O)(=O)O)NC1CC2CCC1C2 (centres undefined) | inactive
CC(C)=C1CCC(CN2CCCC2)C1=O (centres undefined) | inactive
O=C1C(Cl)=C(NCCO)C(=O)c2c(O)ccc(O)c21 | inactive
CCOC(=O)c1c(NC(=O)c2ccccc2)c(C#N)c2n1CCCCC2 | inactive
Oc1ccc(SCc2cc(O)c(O)c(O)c2)cc1 | inactive
C=C(CN(C)C)C(=O)c1ccc(Oc2ccccc2)cc1 | active
O=C1NC(=O)C(F)(n2cc(F)c(=O)[nH]c2=O)C(O)N1 (centres undefined) | inactive
CC1CC[P+](c2ccccc2)(c2ccccc2)c2c1ccc1ccccc21 (centres undefined) | inactive
CCOC(=O)CSc1nc(N)c2c(-c3ccc(OC)c(OC)c3)c3c(nc2n1)CCCC3 | inactive
Cc1cn(C2CC(O)C(CO)O2)c(=O)n2nnnc12 (centres undefined) | inactive
O=C(OC1C(Oc2ccccc2COC(=O)C2(O)C=CCCC2=O)OC(CO)C(O)C1O)c1ccccc1 (centres undefined) | inactive
C=C1CC2OC2(C(=O)O[C@H]2CCC3[C@@H]4CCC5=CC(=O)CC[C@]5(C)C4CC[C@@]32C)C1=O (some centres undefined) | active
COC(=O)[C@H](Cc1ccc(OC(C)(C)C)cc1)N[C@H](C)C(=O)N[C@@H](Cc1ccccc1)C(=O)OCc1ccccc1 | inactive
NC(CCP(=O)(O)CCC1C=CC=CC1)C(=O)O (centres undefined) | inactive
O=C(CC(CC(=O)Oc1c(Br)cc(Br)cc1C(=O)O)C(=O)Oc1c(Br)cc(Br)cc1C(=O)O)Oc1c(Br)cc(Br)cc1C(=O)O | inactive
O=[N+]([O-])c1ccc2c(c1)Sc1ccccc1N2 | inactive
Cc1cc(Cc2cc(C)cc(C(C)(C)C)c2O)c(O)c(Cc2cc(C)cc(C(C)(C)C)c2O)c1 | inactive
CC1(C)CCC[C@@]2(C)C1CCC1(C)C(CCc3ccoc3)/C(=C/OS(=O)(=O)O)CCC12 (some centres undefined) | inactive
COc1ccc(/C=C2\OC(=O)C(Cl)=C2c2ccc(OC)cc2)cc1 | inactive
O=C1C=CC(=O)c2c1c1c(c3c2C2c4ccccc4C3c3ccccc32)C2c3ccccc3C1c1ccccc12 | inactive
